ASSAY DETAILS: Phase 1 multiple ascending dose plasma pharmacokinetics
Type: in vivo, human
CONDITION DETAILS: human, plasma, oral; Cohort 7, 15 mg once daily, fed, Day 10, mean; read-out: AUC0-inf or tau
ASSAY READOUT: AUC(0-inf) (ng·h/mL)
# number only, unit ng·h/mL dropped from output

# AUC(0-inf) (compound: C=CC(=O)N1CCC[C@@H](c2c(F)cc(C(N)=O)c3[nH]c4c(c23)CCCCC4)C1 [Compound 1] ) is 353

* * *

ASSAY DETAILS: Phase 1 food effect on pharmacokinetics
Assay type: in vivo, human
CONDITION DETAILS: both sexes, human, plasma, oral, 15 mg, single 15 mg dose; fasting, moderate-fat meal or high-fat high-calorie meal; read-out: terminal half-life (converted)
ASSAY READOUT: half-life

# half-life (molecule: "C=CC(=O)N1CCC[C@@H](c2c(F)cc(C(N)=O)c3[nH]c4c(c23)CCCCC4)C1" ) is ~3 h

* * *

ASSAY DETAILS: Phase 1 single ascending dose plasma pharmacokinetics
Assay type: in vivo, human
CONDITION DETAILS: both sexes, human, plasma, oral, 15 mg, Cohort 2, 15 mg single dose, fed, mean
ASSAY READOUT: Cmax (ng/mL)
# number only, unit ng/mL dropped from output

# Cmax (molecule: "C=CC(=O)N1CCC[C@@H](c2c(F)cc(C(N)=O)c3[nH]c4c(c23)CCCCC4)C1" ) is 124

* * *

ASSAY DETAILS: Solubility testing in vehicle, HPLC (Form III)
Assay type: physicochemical
CONDITION DETAILS: organic solvent or mixture, thermodynamic from solid; PEG400; RT; 24 h; pH 5.6; loading 50 mg/mL
ASSAY READOUT: solubility at 24 h

# solubility at 24 h (compound: C=CC(=O)N1CCC[C@@H](c2c(F)cc(C(N)=O)c3[nH]c4c(c23)CCCCC4)C1 [Compound 1] ) is > 50 mg/mL

* * *

ASSAY DETAILS: Phase 1 single ascending dose plasma pharmacokinetics
Type: in vivo, human
CONDITION DETAILS: both sexes, human, plasma, oral, 45 mg, Cohort 3, 45 mg single dose, fed, median; read-out: T1/2 (converted)
ASSAY READOUT: half-life

# half-life (compound: C=CC(=O)N1CCC[C@@H](c2c(F)cc(C(N)=O)c3[nH]c4c(c23)CCCCC4)C1 [Compound 1] ) is 3.4 h

* * *

ASSAY DETAILS: Phase 1 multiple ascending dose plasma pharmacokinetics
Assay type: in vivo, human
CONDITION DETAILS: human, plasma, oral, 15 mg, Cohort 7, 15 mg once daily, fed, Day 1, median; read-out: T1/2 (converted)
ASSAY READOUT: half-life (h)
# number only, unit h dropped from output

# half-life (compound: "C=CC(=O)N1CCC[C@@H](c2c(F)cc(C(N)=O)c3[nH]c4c(c23)CCCCC4)C1" ) is 3.19

* * *

ASSAY DETAILS: Solubility testing in vehicle, HPLC (Form III)
Type: physicochemical
CONDITION DETAILS: organic solvent or mixture, thermodynamic from solid; PEG400/TPGS(3/1); 45° C.; 24 h; pH 6.1; loading 50 mg/mL
ASSAY READOUT: solubility at 24 h

# solubility at 24 h (compound: "C=CC(=O)N1CCC[C@@H](c2c(F)cc(C(N)=O)c3[nH]c4c(c23)CCCCC4)C1" ) is > 50 mg/mL

* * *

ASSAY DETAILS: Phase 1 food effect on pharmacokinetics
Format: in vivo, human
CONDITION DETAILS: human, plasma, oral, 15 mg, Cohorts 2 and 7, 15 mg single dose, Moderate-Fat, mean
ASSAY READOUT: AUC(0-inf) (ng·h/mL)
# number only, unit ng·h/mL dropped from output

# AUC(0-inf) (molecule: "C=CC(=O)N1CCC[C@@H](c2c(F)cc(C(N)=O)c3[nH]c4c(c23)CCCCC4)C1" ) is 322

* * *

ASSAY DETAILS: Phase 1 single ascending dose plasma pharmacokinetics
Assay type: in vivo, human
CONDITION DETAILS: both sexes, human, plasma, oral, 200 mg, Cohort 6, 200 mg single dose, fed, mean
ASSAY READOUT: Cmax

# Cmax (molecule: "C=CC(=O)N1CCC[C@@H](c2c(F)cc(C(N)=O)c3[nH]c4c(c23)CCCCC4)C1" ) is 814 ng/mL

* * *

ASSAY DETAILS: Solubility testing in vehicle, HPLC (Form III)
Assay type: physicochemical
CONDITION DETAILS: aqueous with cosolvent or surfactant or cyclodextrin, thermodynamic from solid; 10% SBE-B-CD; RT; 24 h; pH 6.5; loading 15 mg/mL
ASSAY READOUT: solubility at 24 h (µg/mL)
# number only, unit µg/mL dropped from output

# solubility at 24 h (compound: "C=CC(=O)N1CCC[C@@H](c2c(F)cc(C(N)=O)c3[nH]c4c(c23)CCCCC4)C1" ) is 1600

* * *

ASSAY DETAILS: Approximate solubility, solvent addition method, visual assessment
Type: physicochemical
CONDITION DETAILS: isopropyl acetate, organic solvent or mixture, thermodynamic from solid, Isopropyl acetate; read-out: Solubility
ASSAY READOUT: Solubility

# Solubility (compound: "C=CC(=O)N1CCC[C@@H](c2c(F)cc(C(N)=O)c3[nH]c4c(c23)CCCCC4)C1" ) is ~1500 µg/mL

* * *

ASSAY DETAILS: Phase 1 CSF penetrance (CSF/unbound plasma concentration)
Type: in vivo
CONDITION DETAILS: both sexes, human, plasma, oral; Cohort 2, 15 mg single dose, mean; read-out: Plasma Conc @2 hr
ASSAY READOUT: concentration at 2 h (ng/mL)
# number only, unit ng/mL dropped from output

# concentration at 2 h (compound: "C=CC(=O)N1CCC[C@@H](c2c(F)cc(C(N)=O)c3[nH]c4c(c23)CCCCC4)C1" ) is 63.2

* * *

ASSAY DETAILS: Phase 1 single ascending dose plasma pharmacokinetics
Format: in vivo, human
CONDITION DETAILS: both sexes, human, plasma, oral, 5 mg, Cohort 1, 5 mg single dose, fed, mean
ASSAY READOUT: Cmax (ng/mL)
# number only, unit ng/mL dropped from output

# Cmax (molecule: C=CC(=O)N1CCC[C@@H](c2c(F)cc(C(N)=O)c3[nH]c4c(c23)CCCCC4)C1 [Compound 1] ) is 22.5

* * *

ASSAY DETAILS: Phase 1 CSF penetrance (CSF/unbound plasma concentration)
Type: in vivo
CONDITION DETAILS: both sexes, human, CSF, oral; Cohort 2, 15 mg single dose, mean; read-out: CSF Conc (2 hr)
ASSAY READOUT: concentration at 2 h (ng/mL)
# number only, unit ng/mL dropped from output

# concentration at 2 h (molecule: "C=CC(=O)N1CCC[C@@H](c2c(F)cc(C(N)=O)c3[nH]c4c(c23)CCCCC4)C1" ) is 0.9

* * *

ASSAY DETAILS: Solubility testing in aqueous media at various pH (Form III)
Assay type: physicochemical
CONDITION DETAILS: thermodynamic from solid; Water (pH 5.0); 37° C.; 24 h
ASSAY READOUT: solubility at 24 h (µg/mL)
# number only, unit µg/mL dropped from output

# solubility at 24 h (compound: C=CC(=O)N1CCC[C@@H](c2c(F)cc(C(N)=O)c3[nH]c4c(c23)CCCCC4)C1 [Compound 1] ) is 0.7

* * *

ASSAY DETAILS: Solubility testing in vehicle, HPLC (Form III)
Type: physicochemical
CONDITION DETAILS: aqueous with cosolvent or surfactant or cyclodextrin, thermodynamic from solid; Gelucire 48/16; 45° C.; 4 h; loading 50 mg/mL
ASSAY READOUT: solubility at 4 h (mg/mL)
# number only, unit mg/mL dropped from output

# solubility at 4 h (compound: C=CC(=O)N1CCC[C@@H](c2c(F)cc(C(N)=O)c3[nH]c4c(c23)CCCCC4)C1 [Compound 1] ) is 44.3

* * *

ASSAY DETAILS: Solubility testing in vehicle, HPLC (Form III)
Format: physicochemical
CONDITION DETAILS: organic solvent or mixture, thermodynamic from solid; PEG400; RT; 72 h; pH 6.7; loading 50 mg/mL
ASSAY READOUT: solubility at 72 h

# solubility at 72 h (compound: "C=CC(=O)N1CCC[C@@H](c2c(F)cc(C(N)=O)c3[nH]c4c(c23)CCCCC4)C1" ) is > 50 mg/mL

* * *

ASSAY DETAILS: Phase 1 single ascending dose plasma pharmacokinetics
Assay type: in vivo, human
CONDITION DETAILS: both sexes, human, plasma, oral, 100 mg, Cohort 5, 100 mg single dose, fed, mean
ASSAY READOUT: Cmax (ng/mL)
# number only, unit ng/mL dropped from output

# Cmax (compound: "C=CC(=O)N1CCC[C@@H](c2c(F)cc(C(N)=O)c3[nH]c4c(c23)CCCCC4)C1" ) is 555
